This collection of values is drawn from the supplement of paper PMC10567573.

Entries and their measured protein stability index follow.
B1: FBXO34 (parent)
chain: ASSVESTLPVLEASSWKKQVSHDF

- Variants of: B1
- Test Summary: protein stability index of a GFP-peptide fusion (GPS, HEK-293T) (PSI 1-6); higher = more stable;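 further: lentivirally expressed fusions sorted by FACS into six bins by GFP to DsRed ratio, PSI derived from sequencing read proportions per bin multiplied by bin number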
- Condition Set: c terminus: a fixed tail appended
Reported Property: protein stability index

| Mutation String | Observed |
| --- | --- |
| E12A | 3.02 |
| W16R | 4.69 |
| P9D | 3.03 |
| V10I | 2.39 |
| S2L | 1.47 |
| D23A | 3.54 |
| S6R | 2.43 |
| Q19W | 2.59 |
| K17A | 1.83 |
| S2A | 2.81 |
| S2F | 1.92 |
| P9L | 2.04 |
| L11P | 2.78 |
| S3K | 2.56 |
| S15K | 3.92 |
| S3V | 2.49 |
| W16V | 4.99 |
| T7H | 3.21 |
| S15M | 3.5 |
| V20L | 3.55 |
| S6D | 2.46 |
| S6H | 2.42 |
| A1P | 2.64 |
| S14I | 3.74 |
| S6T | 3.06 |
| E5V | 2.9 |
| K18N | 2.94 |
| Q19N | 3.97 |
| Q19T | 3.3 |
| S21W | 2.3 |
| S21V | 3.65 |
| S21A | 3.31 |
| F24H | 3.98 |
| V20K | 4.3 |
| W16E | 5.07 |
| D23E | 1.77 |
| S15F | 2.75 |
| S6Y | 2.48 |
| S14P | 3.07 |
| S2H | 2.4 |
| E5L | 2.9 |
| V10C | 2.95 |
| D23Y | 2.18 |
| P9W | 2.8 |
| V4S | 3.01 |
| E12T | 2.86 |
